biological target: human CGAS (157-522) (Homo sapiens, UniProt Q8N884)
Sequence (Q8N884 157-522): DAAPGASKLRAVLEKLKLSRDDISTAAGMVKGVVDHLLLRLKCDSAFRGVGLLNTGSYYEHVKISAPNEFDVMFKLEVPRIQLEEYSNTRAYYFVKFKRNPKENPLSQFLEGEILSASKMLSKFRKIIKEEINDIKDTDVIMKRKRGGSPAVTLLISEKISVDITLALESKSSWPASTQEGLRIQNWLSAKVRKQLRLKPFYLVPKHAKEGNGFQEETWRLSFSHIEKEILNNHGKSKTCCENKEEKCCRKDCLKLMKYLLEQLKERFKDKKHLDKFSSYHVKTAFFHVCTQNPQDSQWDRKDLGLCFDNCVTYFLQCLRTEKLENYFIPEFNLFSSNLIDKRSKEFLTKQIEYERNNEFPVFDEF
pIC50: −log10 of the molar value. Structures can show the parent of a compound that is named as a salt.
# pIC50 >= 8 gives 1.0, anything below gives 0.0

In: Decide: is the reported value of pIC50 for CC(C)[C@H](N)C(=O)OCn1cnc(-c2c(-c3nc(C(F)(F)F)nn3COC(=O)[C@@H](N)C(C)C)nc3ncccn23)c1 [Example 24, trifluoroacetic acid salt] equal to or greater than 8?
Out: 0.0

In: Does the reported pIC50 for N#Cc1cnc2nc(-c3nc(C(F)(F)F)n[nH]3)c(-c3cnc[nH]3)n2c1 [Example 110] fall at or above the 8 mark?
Out: 0.0

In: Is pIC50 for N#CCCOCc1cnc2nc(-c3nc(C(F)(F)F)n[nH]3)c(-c3cnc[nH]3)n2c1 [Example 105] at or above 8?
Out: 1.0

In: Reported pIC50 reaches at least 8 for FC(F)(F)c1n[nH]c(-c2nc3ncc(CN4CCOCC4)cn3c2-c2c[nH]cn2)n1 [Example 70] ?
Out: 1.0

In: I'd appreciate it if you could say whether FC(F)(F)c1n[nH]c(-c2nc3ncc(C4CCCO4)cn3c2-c2cnc[nH]2)n1 (stereo not drawn) [Example 82] has pIC50 at least equal to 8.
Out: 1.0

In: Quick check, pIC50 >= 8? O=S1(=O)CCc2nc3nc(-c4nc(C(F)(F)F)n[nH]4)c(-c4cnc[nH]4)n3cc2C1 [Example 104]
Out: 1.0

In: Reported pIC50 reaches at least 8 for COC(=O)c1ccn2c(-c3c[nH]cn3)c(-c3nc(Br)n[nH]3)nc2n1 [Example 36] ?
Out: 1.0

In: State whether the measured pIC50 reaches 8, counting equality as reaching it, for CCc1nc2nc(-c3nc(C(F)(F)F)n[nH]3)c(-c3cnc[nH]3)n2cc1C [Example 47]
Out: 1.0

In: Please tell me: is the compound O=C(O)CCOC(=O)OCn1nc(C(F)(F)F)nc1-c1nc2ncccn2c1-c1cnc[nH]1 [Example 33, trifluoroacetic acid salt] at or over 8 in terms of pIC50?
Out: 0.0

In: Does the reported pIC50 for FC(F)(F)c1n[nH]c(-c2nc3ncc(C4CCCC4)cn3c2-c2cnc[nH]2)n1 [Example 16, trifluoroacetic acid salt] fall at or above the 8 mark?
Out: 1.0

In: Could you please find out whether FC(F)(F)c1n[nH]c(-c2nc3nc(N4CCOCC4)ccn3c2-c2c[nH]cn2)n1 [Example 42] has pIC50 that meets 8 or exceeds it?
Out: 0.0

###

biological target: human CGAS (157-522) (Homo sapiens, UniProt Q8N884);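 note: biochemical enzyme reaction, 2′3′-cGAMP product measured by RapidFire mass spectrometry (MRM) normalised to c-di-UMP internal standard, inhibition of product formation relative to high and low control wells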
pIC50: −log10 of the molar value. Structures can show the parent of a compound that is named as a salt.
# label = condition met if pIC50 >= 8 else condition not met

Some solved cases for reference:
COc1nc2c(-n3ccnc3)c(-c3nnc(C(F)(F)F)[nH]3)[nH]c2cc1Cl = condition not met
CC(C)(C)C(=O)n1cnc(-c2c(-c3nc(C(F)(F)F)n[nH]3)nc3ncccn23)c1 [Example 81] = condition met

In: pIC50 >= 8 for [O-][S+]1CCc2nc3nc(-c4nc(C(F)(F)F)n[nH]4)c(-c4cnc[nH]4)n3cc2C1 (centres unmarked) [Example 116] ?
Out: condition met

In: Test whether the compound FC(F)(F)c1n[nH]c(-c2nc3nc4c(cn3c2-c2cnc[nH]2)CCO4)n1 [Example 48] records pIC50 of 8 or higher.
Out: condition met

In: Does pIC50 meet or surpass 8 for CNCCOC(=O)OCn1nc(C(F)(F)F)nc1-c1nc2ncccn2c1-c1cnc[nH]1 [Example 28, trifluoroacetic acid salt] ?
Out: condition met

In: Could you tell me if the measured pIC50 of O=C(O)CCOC(=O)OCn1cnc(-c2c(-c3nc(C(F)(F)F)nn3COC(=O)OCCC(=O)O)nc3ncccn23)c1 [Example 31, trifluoroacetic acid salt] reaches 8 or more?
Out: condition not met

In: Does the compound FC(F)(F)c1n[nH]c(-c2nc3ncc(Cl)cn3c2-c2cnc[nH]2)n1 [Example 45] have recorded pIC50 that is 8 or more?
Out: condition met

In: Assess whether reported pIC50 for FC(F)(F)c1n[nH]c(-c2nc3nc4c(cn3c2-c2cnc[nH]2)CCCC4)n1 [Example 134] sits at 8 or higher.
Out: condition met

In: Assess whether reported pIC50 for OCCCCCOCc1cnc2nc(-c3nc(C(F)(F)F)n[nH]3)c(-c3cnc[nH]3)n2c1 [Example 142] sits at 8 or higher.
Out: condition met

In: Is the recorded value of pIC50 equal to or greater than 8 for this compound? FC(F)(F)c1n[nH]c(-c2nc3nc4c(cn3c2-c2cnc[nH]2)COCC4)n1 [Example 71]
Out: condition met
